- Test system: PHOX2B
- measurementNotes: 3' UTR reporter interaction score (median-centred robust z-score of log2 firefly/Renilla activity); higher = less repression of the 3' UTR reporter
- assaySetup: HEK293T; 48 h
Assign class by 3' UTR reporter interaction score: not lower than -0.5 means Yes; lower than -0.5 means No.

AUCACAUUGCCAGGGAUUUCC: Yes
UUGGUCCCCUUCAACCAGCUA: No
UAGCAGCACAUAAUGGUUUGUG: Yes
CAAGAACCUCAGUUGCUUUUGU: No
UCUACAAAGGGAAGCCCUUUCUG: No
AGAGGCUGGCCGUGAUGAAUUC: Yes
UUUCCUAUGCAUAUACUUCUUU: No
UGGUCUAGGAUUGUUGGAGGAG: No
AAUGACACGAUCACUCCCGUUGA: No
AGGCACCAGCCAGGCAUUGCUCAGC: No
UGUCUUGCAGGCCGUCAUGCA: Yes
GAGGUUGUCCGUGGUGAGUUCG: Yes
UGUGACUGGUUGACCAGAGGG: Yes
UGUGCUUGCUCGUCCCGCCCGCAG: Yes
UGAGGUAGGAGGUUGUAUAGU: Yes
UGGUGGGCCGCAGAACAUGUGC: Yes
UCCAGUACCACGUGUCAGGGCCA: Yes
UGUGCAAAUCUAUGCAAAACUGA: Yes
GCACAUUACACGGUCGACCUCU: No
UUAUGGUUUGCCUGGGACUGAG: Yes
ACCAUCGACCGUUGAUUGUACC: Yes
AUGAUCCAGGAACCUGCCUCU: No
UUUUUGCGAUGUGUUCCUAAUA: Yes
GUCCGCUCGGCGGUGGCCCA: Yes
UUCACAGGGAGGUGUCAUUUAU: No
CAGCAGCAAUUCAUGUUUUGAA: Yes
UGAGAUGAAGCACUGUAGCUCA: No
AGUUAAUGAAUCCUGGAAAGU: No
UGGCAGUGUAUUGUUAGCUGGU: Yes
UGUUUGCAGAGGAAACUGAGAC: Yes
AGUGACAUCACAUAUACGGCAGC: Yes
AACGCGCUUCCCUAUAGAGGG: Yes
UCAAAUGCUCAGACUCCUGU: Yes
UGGUUUACCGUCCCACAUACAU: Yes
GUGUCUUUUGCUCUGCAGUCA: No
UAGGUUAUCCGUGUUGCCUUCG: Yes
UCUUGUGUUCUCUAGAUCAGU: No
UAGCAGCACAGAAAUAUUGGC: Yes
UACGUCAUCGUUGUCAUCGUCA: Yes
AGCUACAUUGUCUGCUGGGUUUC: Yes
UGAGGUAGUAGGUUGUGUGGUU: Yes
GAAGUGCUUCGAUUUUGGGGUGU: Yes
GUGCAUUGCUGUUGCAUUGCA: Yes
CUGGACUUAGGGUCAGAAGGCC: Yes
GUGUGUGGAAAUGCUUCUGC: No
AGGGGGAAAGUUCUAUAGUCCU: Yes
UUACAGUUGUUCAACCAGUUACU: No
UGGAAGACUAGUGAUUUUGUUG: Yes
UCCUGUACUGAGCUGCCCCGAG: Yes
GGUAGAUUCUCCUUCUAUGAG: Yes
GAUUGCUCUGCGUGCGGAAUCGAC: Yes
UCUAGGCUGGUACUGCUGA: Yes
UGAGGUAGUAGUUUGUGCUGU: No
CUAAUAGUAUCUACCACAAUAAA: Yes
AUUCCUAGAAAUUGUUCAUA: No
GAAGUUGUUCGUGGUGGAUUCG: Yes
UGAGUUGGCCAUCUGAGUGAG: No

Provenance of the data: the supplement of paper PMC5844555
